Tested on: IGROV1 ovarian
Assay: NCI-60 one-dose screen, 48 h (100 = growth as untreated, 0 = no growth, -100 = all killed)
Conditions: 10 µM
About 83,000 compounds went through this panel and 20% of them were active in at least one assay; those are over-represented in the sample as a whole.
# growth per entry
MEASURED PARAMETER: growth (%)

- COMPOUND: "CS(=O)(=O)c1nccc(-c2c(-c3cccc(OCc4ccccc4)c3)nc3sccn23)n1"
  RECORDED NUMBER: 58.4
- COMPOUND: "CCCc1cn(CC(=O)Nc2nc3ccccc3s2)nn1"
  RECORDED NUMBER: 97.3
- COMPOUND: "CS(=O)(=O)c1nccc(-c2c(-c3cccc(OCCc4ccccc4)c3)nc3sccn23)n1"
  RECORDED NUMBER: 88.7
- COMPOUND: "CC1=NN(C(=O)c2nn(-c3ccc(Cl)cc3)cc2O)C(=O)C1"
  RECORDED NUMBER: 34.8
- COMPOUND: "c1cncc(-c2csc(-c3c[nH]c4ccccc34)n2)c1"
  RECORDED NUMBER: 68.8
- COMPOUND: "COc1cc(/C=C2\\CCCC3=C2N=C2SC(C)=CN2C3c2cc(OC)c(OC)c(OC)c2)cc(OC)c1OC (stereo unspecified)"
  RECORDED NUMBER: 2.86
- COMPOUND: "CCOC(=O)c1cc(C(=O)c2ccc(OC)c(OC)c2)n2ccncc12"
  RECORDED NUMBER: 102
- COMPOUND: "COc1ccc2cc(-c3nc4ccccc4s3)c(Cl)nc2c1OC"
  RECORDED NUMBER: 103
- COMPOUND: "O=C1NC(=O)c2c(CCCSc3nc4ccccc4c(=O)n3CCc3ccccc3)cccc21"
  RECORDED NUMBER: 97.4
- COMPOUND: "OC[C@H]1OC([S-])[C@H](O)[C@@H](O)[C@@H]1O.[Au+] (stereo partly specified)"
  RECORDED NUMBER: 119
- COMPOUND: "CC1/C=C/C=C/C=C/C=C/C=C/C=C/C=C/C(O[C@@H]2O[C@H](C)[C@H](O)[C@@H](O)[C@@H]2N)CC(O)C(C(=O)O)C(O)CC(=O)CC(O)CC(O)CC(O)CC(=O)CCCC(=O)CC(=O)OC1C(C)CC(C)C(O)CC(=O)c1ccc(N)cc1 (stereo partly specified)"
  RECORDED NUMBER: -83.7
- COMPOUND: "CCN(CCCNc1cc2c(c(N)c1S(=O)(=O)O)C(=O)c1ccccc1C2=O)c1ccccc1"
  RECORDED NUMBER: 114
- COMPOUND: "Cc1cc(Cl)ccc1Nc1nc(C(F)(F)F)ccc1C(=O)N/N=C/c1c(Cl)cccc1Cl"
  RECORDED NUMBER: 4.15
- COMPOUND: "COc1ccc(-c2nnc(SCC(=O)Nc3ccc(C(=O)/C=C/c4ccccc4)cc3)n2-c2ccccc2)cc1OC"
  RECORDED NUMBER: 87.4
- COMPOUND: "COc1ccc(/C=C/c2nnc(/C=C/c3ccc(OC)c(OC)c3)o2)cc1OC"
  RECORDED NUMBER: 22.5
- COMPOUND: "COc1cc2cc(Oc3ccc(NC(=O)c4cccc(C(F)(F)F)c4)cc3)c(C)nc2cc1OC"
  RECORDED NUMBER: 36.1
- COMPOUND: "CCOC(=O)c1sc2ncnc(Nc3ccc4c(cnn4C(=O)Nc4ccc(C)c(Cl)c4)c3)c2c1C"
  RECORDED NUMBER: 97.9
- COMPOUND: "O=C1/C=C/[C@@H](O)[C@@H]2C[C@@H](O)C[C@H]2/C=C/CCC[C@H](CCc2ccc(NC(=S)Nc3ccc4c(c3)C(=O)OC43c4ccc(O)cc4Oc4cc(O)ccc43)cc2)O1"
  RECORDED NUMBER: 25.7
- COMPOUND: "COc1ccc(C(=O)CC(CC(=O)c2ccc(OC)cc2)c2c(C)nn(-c3ccccc3)c2Cl)cc1"
  RECORDED NUMBER: 104
- COMPOUND: "C#CCOc1c(OC)cc(C(=O)/C(C)=C/c2cccc(N=[N+]=[N-])c2)cc1OC"
  RECORDED NUMBER: 33.2
- COMPOUND: "COc1nc2c(c(=O)n1C)CN(c1ccccc1)C(=O)C(C)N2 (stereo unspecified)"
  RECORDED NUMBER: 106
- COMPOUND: "COc1ccccc1-n1c(-c2csc(NC(C)=O)n2)n[nH]c1=S"
  RECORDED NUMBER: 97.8
- COMPOUND: "Clc1ccc(C2=NN=C3C(Cc4ccccc4)=Nc4ccccc4N3C2)cc1"
  RECORDED NUMBER: 83.8
- COMPOUND: "CCOC(=O)c1cc(C(=O)c2ccc(Cl)cc2)n2ccc(-c3cc[n+](CC(=O)c4ccc(OC)cc4)cc3)cc12"
  RECORDED NUMBER: 93.2
- COMPOUND: "COc1cc2cc(Oc3ccc(NC(=O)c4ccc(Cl)c(C(F)(F)F)c4)cc3)c(C)nc2cc1OC"
  RECORDED NUMBER: 20.6
- COMPOUND: "COc1cc(-c2nn(-c3cccc(NC(=O)CCN4CCN(Cc5ccccc5)CC4)c3)cc2-c2ccncc2)ccc1Cl"
  RECORDED NUMBER: 31.9
- COMPOUND: "CC(=O)C1CCC2C3CC=C4CC(SC(=N)N)CCC4(C)C3CCC12C (stereo unspecified)"
  RECORDED NUMBER: 35.7
- COMPOUND: "Cc1ccc(C(=O)/C=C/c2ccccc2)s1"
  RECORDED NUMBER: 79.4
- COMPOUND: "COc1ccc(-c2nn(-c3cccc(Cl)c3)cc2-c2cc(-c3cccs3)[nH]c(=S)n2)cc1"
  RECORDED NUMBER: 50.7
- COMPOUND: "CCOC(=O)C1=CSC2=NC3=C(CCC/C3=C\\c3ccc(Cl)cc3)C(c3ccc(Cl)cc3)N12 (stereo unspecified)"
  RECORDED NUMBER: 109
- COMPOUND: "CCOC(=O)C1=CSC2=NC3=C(CCC/C3=C\\c3cc(OC)c(OC)c(OC)c3)C(c3cc(OC)c(OC)c(OC)c3)N12 (stereo unspecified)"
  RECORDED NUMBER: 89.7
- COMPOUND: "C=CCn1c(SCC(=O)Nc2ccc(C(=O)/C=C/c3ccc(Cl)cc3)cc2)nnc1-c1cc(-c2ccccc2)nc2ccccc12"
  RECORDED NUMBER: -62
- COMPOUND: "CCCCc1oc2ccccc2c1C(=O)c1cc(I)c(OCCN(CC)CC)c(I)c1"
  RECORDED NUMBER: 29.5
- COMPOUND: "Nc1cc(-c2ccc(Cl)cc2)nn1-c1nc2ccccc2nc1Cc1ccccc1"
  RECORDED NUMBER: 94.9
- COMPOUND: "COc1cccc(CNc2cccc3cn[nH]c23)c1O"
  RECORDED NUMBER: 88.8
- COMPOUND: "CCCCCC(=O)O[C@]1(C(C)=O)CCC2C3CCC4=CC(=O)CC[C@]4(C)C3CC[C@@]21C (stereo partly specified)"
  RECORDED NUMBER: 33.4

---

Tested on: A498 renal
Experiment: NCI-60 one-dose screen, 48 h (100 = growth as untreated, 0 = no growth, -100 = all killed)
Settings: 10 µM
Compounds without any hit were thinned out: in the full panel of roughly 83,000, 20% have a hit.
growth by entry:

- MOLECULE: "C[C@@H](O)[C@H]1C(=O)N2C(C(=O)O)=C(SC3CN[C@H](C(=O)N(C)C)C3)[C@H](C)[C@H]12 (stereo not given in full)"
  growth [%]: 88.8
- MOLECULE: "COc1ccc(-c2cc(-c3ccc(Cl)cc3)nc(SCCCC(=O)NO)n2)cc1OC"
  growth [%]: -40.1
- MOLECULE: "O=c1oc2c(cc1-c1ccc(F)cc1)C(O)Oc1ccccc1-2 (stereo not given)"
  growth [%]: 89.5
- MOLECULE: "CC(C)(C)OC(=O)N1CCc2c(sc3ncnc(N/N=C/c4ccc(Br)cc4)c23)C1"
  growth [%]: 31.2
- MOLECULE: "COc1cc(-c2nn(-c3cccc(NC(=O)CCN4CCN(c5ccccc5)CC4)c3)cc2-c2ccncc2)ccc1Cl"
  growth [%]: 5.91
- MOLECULE: "O=C1/C=C/[C@@H](O)[C@@H]2C[C@@H](O)C[C@H]2/C=C/CCC[C@H](C(F)(F)F)O1"
  growth [%]: -18.2
- MOLECULE: "NC1=CC(=O)C(=O)c2cccnc21"
  growth [%]: 92.6
- MOLECULE: "CS(=O)(=O)c1nccc(-c2c(-c3cccc(OCc4ccc(F)cc4)c3)nc3sccn23)n1"
  growth [%]: 77.3
- MOLECULE: "CN(C)CCC1(c2ccccc2)CCN(C)C1=O (stereo not given)"
  growth [%]: 94.1
- MOLECULE: "CC(C)(C)OC(=O)N1CCc2c(sc3ncnc(N/N=C/c4cccc5ccccc45)c23)C1"
  growth [%]: 4.77
- MOLECULE: "COc1ccc(/C=C2\\CCCC3C2=Nc2ccccc2NC3c2ccc(OC)cc2)cc1 (stereo not given)"
  growth [%]: 77.3
- MOLECULE: "COc1cc(-c2nn(-c3cccc(NC(=O)NCCNC(=O)c4ccccc4)c3)cc2-c2ccncc2)ccc1Cl"
  growth [%]: -3.29
- MOLECULE: "Cn1cnc([N+](=O)[O-])c1/C=C1\\Oc2ccc(Br)cc2C1=O"
  growth [%]: 100
- MOLECULE: "COc1ccc2nc(-c3ccc(Cl)cc3)cc(-c3nnc(SC/C(=N\\O)c4ccccc4)n3-c3ccccc3)c2c1"
  growth [%]: 96.3
- MOLECULE: "CC[N+](CC)=c1ccc2nc3c(cc(NCc4ccccc4)c4ccccc43)oc-2c1"
  growth [%]: 44.8
- MOLECULE: "O=C(CN1CCN(C(=O)c2ccccc2)CC1)Nc1ccccc1SCc1ccccc1"
  growth [%]: 86.6
- MOLECULE: "C[C@@H](O)[C@H]1C(=O)N2C(C(=O)O)=C(SCCN=CN)C[C@H]12"
  growth [%]: -36.4
- MOLECULE: "Cc1cc(SC#N)cc(C(C)(C)C)c1O"
  growth [%]: 86.1
- MOLECULE: "NS(=O)(=O)Oc1ccc(NC(=O)C2CCCCCC2)cc1"
  growth [%]: 122
- MOLECULE: "OCC1OC(n2ccc3c(NO)ncnc32)C(O)C1O (stereo not given)"
  growth [%]: -51.1
